Target: recombinant human LSD1 (Homo sapiens, UniProt O60341)
Construct: Full-length human LSD1 cDNA was subcloned into the pET15b bacterial expression vector; 6xHis (N); made in house; host or cells: Escherichia coli BL21(DE3)
Experiment: LSD1 demethylase assay, luminol-dependent chemiluminescence (H2O2 production), H3K4me2 (1-21 aa) peptide substrate
Assay type: biochemical
Conditions: compound at 10 μM
property.name: remaining activity at 10 µM (%)

{"smiles.text": "O=C(O)CCCCCC(=O)Nc1ccccc1F", "assay.result": 95.9}
{"smiles.text": "C#CCN(CC#C)CCCC[C@H](NC(=O)CCCCCC(=O)Nc1ccccc1F)C(=O)OC", "assay.result": 100}
{"smiles.text": "COC(=O)[C@H](CCCCNC(=O)NCC(c1ccccc1)c1ccccc1)NC(=O)CC(=O)Nc1ccccc1F", "assay.result": 100}
{"smiles.text": "O=C(O)CCCCC(=O)Nc1ccccc1F", "assay.result": 76.4}
{"smiles.text": "C#CCNCCCC[C@H](NC(=O)CC(=O)Nc1ccccc1F)C(=O)OC", "assay.result": 90.4}
{"smiles.text": "COC(=O)[C@H](CCCCNC(=S)NCC(c1ccccc1)c1ccccc1)NC(=O)CC(=O)Nc1ccccc1F", "assay.result": 100}
{"smiles.text": "COC(=O)[C@H](CCCCNC(=S)NCCC(c1ccccc1)c1ccccc1)NC(=O)CC(=O)Nc1ccccc1F", "assay.result": 100}
{"smiles.text": "C#CCN(CC#C)CCCC[C@H](NC(=O)CCC(=O)Nc1ccccc1F)C(=O)OC", "assay.result": 92.4}
{"smiles.text": "C#CCN(CC#C)CCCC[C@H](NC(=O)CCCCC(=O)Nc1ccccc1F)C(=O)OC", "assay.result": 100}

---

Target: recombinant human LSD1 (Homo sapiens, UniProt O60341)
Construct: Full-length human LSD1 cDNA was subcloned into the pET15b bacterial expression vector; 6xHis (N); made in house; host or cells: Escherichia coli BL21(DE3)
Test: LSD1 demethylase assay, luminol-dependent chemiluminescence (H2O2 production), H3K4me2 (1-21 aa) peptide substrate
Type: biochemical
Details: compound at 10 μM
property.name: remaining activity at 10 µM (%)

{"smiles.text": "COC(=O)[C@H](CCCCNC(=S)NC(c1ccccc1)c1ccccc1)NC(=O)CC(=O)Nc1ccccc1F", "remaining activity at 10 µM, %": 100}
{"smiles.text": "O=C(O)CC(=O)Nc1ccccc1F", "remaining activity at 10 µM, %": 98.2}
{"smiles.text": "COC(=O)[C@H](CCCCNC(=O)NCCC(c1ccccc1)c1ccccc1)NC(=O)CC(=O)Nc1ccccc1F", "remaining activity at 10 µM, %": 100}
{"smiles.text": "COC(=O)[C@@H](N)CCCCNC(=O)CC(=O)Nc1ccccc1F", "remaining activity at 10 µM, %": 88.4}
{"smiles.text": "O=C(O)CCCC(=O)Nc1ccccc1F", "remaining activity at 10 µM, %": 100}
{"smiles.text": "O=C(O)CCC(=O)Nc1ccccc1F", "remaining activity at 10 µM, %": 92.6}
{"smiles.text": "C#CCN(CC#C)CCCC[C@H](NC(=O)CCCC(=O)Nc1ccccc1F)C(=O)OC", "remaining activity at 10 µM, %": 100}
{"smiles.text": "C#CCN(CC#C)CCCC[C@H](NC(=O)CC(=O)Nc1ccccc1F)C(=O)OC", "remaining activity at 10 µM, %": 84.1}
{"smiles.text": "COC(=O)[C@H](CCCCNC(=O)NC(c1ccccc1)c1ccccc1)NC(=O)CC(=O)Nc1ccccc1F", "remaining activity at 10 µM, %": 100}

The values you see were collected from patent US9527805B2.
